Biological target: central dopaminergic receptors (Homo sapiens, UniProt P21917)
Sequence (P21917 1-419): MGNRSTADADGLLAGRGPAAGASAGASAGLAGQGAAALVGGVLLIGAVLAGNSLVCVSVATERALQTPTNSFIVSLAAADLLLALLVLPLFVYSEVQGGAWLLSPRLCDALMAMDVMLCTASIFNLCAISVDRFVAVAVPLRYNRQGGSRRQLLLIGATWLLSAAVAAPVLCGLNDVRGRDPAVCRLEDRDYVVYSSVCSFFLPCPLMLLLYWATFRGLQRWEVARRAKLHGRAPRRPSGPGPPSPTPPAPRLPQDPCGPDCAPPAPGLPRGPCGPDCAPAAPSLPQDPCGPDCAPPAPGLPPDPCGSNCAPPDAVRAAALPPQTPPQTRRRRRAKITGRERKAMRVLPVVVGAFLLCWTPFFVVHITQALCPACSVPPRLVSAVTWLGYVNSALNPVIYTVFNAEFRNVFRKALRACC
Test: in vitro binding profile to central dopaminergic receptors (Table 3)
Details: human recombinant CHO-K1 cells, ligand [3H]spiperone; read-out: D4 binding
Source text: The new 2,3-benzodiazepine atypical antipsychotic agents of formula (I) of the present invention influence dopaminergic neurotransmission by a unique indirect fashion, differently from both the first and second generation antipsychotics. […]
attribute.measured: Ki

The compound identified as CNC(=O)N1N=C(c2ccc(N)cc2)c2cc(OC)c(OC)cc2C[C@H]1C [Example 121] registered its Ki at > 10 µM

The compound identified as COc1cc2c(cc1OC)C(c1ccc(N)c(C)c1)=NN(c1nncs1)[C@H](C)C2 [Example 110] registered its Ki at > 10 µM

The compound identified as COc1cc2c(cc1OC)C(c1ccc(N)c(C)c1)=NN(c1ncon1)[C@H](C)C2 [Example 104] registered its Ki at > 10 µM

The compound identified as CNC(=O)N1N=C(c2ccc(N)c(C)c2)c2cc(OC)c(OC)cc2C[C@H]1C [Example 123] registered its Ki at > 10 µM
